- experimental.protocol: in vitro
- condition.parameters: human, Caco-2
measurement.kind: Papp A→B (×10⁻⁶ cm/s)

[[record]]
entry_smiles = "COc1cc(-n2ncc3c(-c4cccc(-c5ccc(CN(C)C67CCC(C(=O)O)(CC6)CC7)c(OC)n5)c4Cl)cccc32)cc(OC)c1CN(C)[C@H]1C[C@H](O)C1"
experimental_result = 3

[[record]]
entry_smiles = "COc1cc(-n2ncc3c(-c4cccc(-c5ccc(CN[C@H]6C[C@@H](O)C6)c(OC)n5)c4Cl)cccc32)cc(OC)c1CN(C)C12CCC(C(=O)O)(CC1)CC2"
experimental_result = 0.4

[[record]]
entry_smiles = "COc1cc(-n2ncc3c(-c4cccc(-c5ccc(CN[C@H]6C[C@@H](O)C6)c(OC)n5)c4Cl)cccc32)cc(OC)c1CN1CC(C(=O)O)C1"
experimental_result = 0.1


FYI, the data here is from ChEMBL document CHEMBL5614395.
